Target: Dual specificity mitogen-activated protein kinase kinase 1 (Homo sapiens, UniProt Q02750)
Sequence (Q02750 whole entry): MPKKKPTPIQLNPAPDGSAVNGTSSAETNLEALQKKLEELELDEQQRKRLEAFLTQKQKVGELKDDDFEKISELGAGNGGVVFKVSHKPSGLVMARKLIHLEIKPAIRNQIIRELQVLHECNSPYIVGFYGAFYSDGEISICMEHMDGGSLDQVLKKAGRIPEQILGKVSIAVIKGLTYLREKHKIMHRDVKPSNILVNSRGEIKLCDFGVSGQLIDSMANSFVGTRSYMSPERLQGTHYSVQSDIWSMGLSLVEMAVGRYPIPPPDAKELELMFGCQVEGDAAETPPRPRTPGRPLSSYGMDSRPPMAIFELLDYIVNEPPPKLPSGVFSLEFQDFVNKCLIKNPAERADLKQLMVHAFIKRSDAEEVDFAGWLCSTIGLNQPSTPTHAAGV
Assay: Inhibition of MEK1
pIC50: −log10 of the molar value.
Record form. Attribute: pIC50. Fill in for each entry.

Find the measured pIC50: item `CCCCNc1snc(O)c1C#N` , target or system Dual specificity mitogen-activated protein kinase kinase 1 (Homo sapiens, UniProt Q02750). < 5.30

Find the measured pIC50: item `COC(=O)c1cccc(Nc2s[nH]c(=O)c2C#N)c1` , target or system Dual specificity mitogen-activated protein kinase kinase 1 (Homo sapiens, UniProt Q02750). < 5.30

Find the measured pIC50: item `COc1ccccc1Nc1snc(O)c1C#N` , target or system Dual specificity mitogen-activated protein kinase kinase 1 (Homo sapiens, UniProt Q02750). < 5.30
